Task for the reader: assign each of the following sequences its reported shrunken log2 fold change.
- System: Escherichia coli TOP10
- protocol: shrunken log2 fold change of peptide-encoding DNA abundance (4.5 h post-induction vs induction); higher = less antimicrobial activity (less host growth inhibition)
- recorded conditions: time post-induction: 4.5 h; library: site-saturation at positions 5, 18, 19, 20
Give bare numbers.

residues: RRIRQRPPRLPRPRPRPLVAPRP
study system: Escherichia coli TOP10
observed value: 0.034
//
residues: RRIRQRPPRLPRPRPRPFMTPRP
study system: Escherichia coli TOP10
observed value: -0.00963
//
residues: RRIRDRPPRLPRPRPRPKAPPRP
study system: Escherichia coli TOP10
observed value: 0.341
//
residues: RRIRQRPPRLPRPRPRPVASPRP
study system: Escherichia coli TOP10
observed value: -0.0704
//
residues: RRIRNRPPRLPRPRPRPQHIPRP
study system: Escherichia coli TOP10
observed value: -0.114
//
residues: RRIRGRPPRLPRPRPRPWNIPRP
study system: Escherichia coli TOP10;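 also: peptides expressed intracellularly from a pBAD plasmid library in pooled LB shake-flask culture, induced with 0.3% L-arabinose, DNA abundance read by NGS, three biological replicates, DESeq2 with apeglm shrinkage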
observed value: -0.409

Batch: shrunken log2 fold change for all items listed.
1. RRIRLRPPRLPRPRPRPNWMPRP
2. RRIRPRPPRLPRPRPRPCPQPRP

1: -0.296; 2: -0.0291
